phosphorylation enrichment listing for selected sequences.
- Tested system: EPHB2 (UniProt P29323)
- Sequence (P29323 whole entry, looked up): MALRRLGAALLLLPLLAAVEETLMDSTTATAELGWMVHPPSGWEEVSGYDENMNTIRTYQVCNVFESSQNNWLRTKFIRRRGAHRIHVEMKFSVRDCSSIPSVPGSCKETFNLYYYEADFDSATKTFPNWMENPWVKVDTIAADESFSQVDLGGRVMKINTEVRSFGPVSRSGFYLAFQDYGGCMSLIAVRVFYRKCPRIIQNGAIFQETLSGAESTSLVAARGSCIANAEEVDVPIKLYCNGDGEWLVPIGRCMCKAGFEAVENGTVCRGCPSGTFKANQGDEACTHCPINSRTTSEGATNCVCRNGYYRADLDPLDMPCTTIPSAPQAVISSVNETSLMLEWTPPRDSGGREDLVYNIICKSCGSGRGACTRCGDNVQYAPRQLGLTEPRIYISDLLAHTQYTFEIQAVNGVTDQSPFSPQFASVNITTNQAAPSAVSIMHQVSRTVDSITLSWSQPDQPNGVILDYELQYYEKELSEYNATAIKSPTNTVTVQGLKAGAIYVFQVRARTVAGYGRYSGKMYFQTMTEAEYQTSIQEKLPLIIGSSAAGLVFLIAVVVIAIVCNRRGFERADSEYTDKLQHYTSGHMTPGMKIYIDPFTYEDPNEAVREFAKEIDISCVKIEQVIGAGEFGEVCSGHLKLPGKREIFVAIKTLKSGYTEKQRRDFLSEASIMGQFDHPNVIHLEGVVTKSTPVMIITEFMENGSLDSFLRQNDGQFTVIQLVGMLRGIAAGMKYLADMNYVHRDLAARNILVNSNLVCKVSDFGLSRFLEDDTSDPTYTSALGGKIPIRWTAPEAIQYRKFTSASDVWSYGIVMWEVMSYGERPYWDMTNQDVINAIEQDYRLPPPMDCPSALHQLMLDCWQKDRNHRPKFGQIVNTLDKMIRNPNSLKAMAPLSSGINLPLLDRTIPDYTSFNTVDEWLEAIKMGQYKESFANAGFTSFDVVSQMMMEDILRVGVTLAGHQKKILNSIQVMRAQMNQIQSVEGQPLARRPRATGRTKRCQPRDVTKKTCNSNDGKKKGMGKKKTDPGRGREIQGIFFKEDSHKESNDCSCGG
- Assay procedure: phosphorylation enrichment, bacterial display (enrichment ratio); higher = better substrate or ligand; peptides without Tyr show the background;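 also: 11-residue human phosphosite peptides and single-mutation variants displayed on the E. coli surface, counted by deep sequencing, each peptide's frequency after selection divided by its frequency in the unselected input library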;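 also: frequency after pTyr selection over input frequency; kinase dosed for 20-30% of maximal phosphorylation in three min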
Readout kind: phosphorylation enrichment

• KLPDAYERFIL [G6PD_Y437_L440F] = 0.562
• ITVPAYFNDSQ [HSPA9_Y196] = 0.491
• RAHARYCADAC [ACOT4_Y52_R57C] = 0.499
• AVAFLYFKSIG [ADGRL4_Y301_V300L_YF] = 0.649
• KRYRIYHLAIS [BRCA2_Y3009_T3013I] = 0.358
• IRKTEYPFSSE [ATP2C1_Y452_A450T] = 0.397
• HRNNNYEPNLF [BRCA2_Y57_K53R] = 0.858

---

- Test system: Fer (mouse)
- Assay procedure: phosphorylation enrichment, bacterial display (enrichment ratio); higher = better substrate or ligand; peptides without Tyr show the background
Readout kind: phosphorylation enrichment

* EGNEQYEGFCV [GRIA3_Y451_R450Q_YF] | 2.87
* IALSKYGRVKR [FGF6_Y186] | 0.372
* SVTCTYSPAPN [TP53_Y126_L130P] | 0.503
* QAPPIYLDVLG [NTRK1_Y791_V790I] | 3.26
* NLVSEYQQYQD [TUBB3_Y422_D417N] | 0.508
* LPQDGYRIVQH [PTPRT_Y1329_R1324L] | 0.408
* SDQRRYSLIDP [CLIP2_Y972_R977P] | 0.545
* ENEGTYVCIAA [ADAMTSL3_Y1365_T1370A] | 1.05
* GVLDIYGFEIL [MYO1A_Y382] | 0.694
* VATRWYRSPEL [CDKL5_Y177] | 0.384
* PLKFLYPNIDR [STAT1_Y668_K673R_YF] | 0.602
* KLPDAYERFIL [G6PD_Y437_L440F] | 1.22
* FHLLPYTVRAM [PARS2_Y93_YF] | 0.514
* QSSALYEDRYL [ASS1_Y83] | 7.79
* PINLFYLMDLS [ITGB2_Y131_D128N_YF] | 0.695
* HQKKPYCHTHN [NRAP_Y53_A56T] | 1.34
* MSRNLYSGDFF [DDR2_Y736_YF] | 1.57
* RAILNYIASKY [GSTA3_Y74] | 0.748
* LRAGVYHEKDQ [DNM2_Y626_P627H] | 0.509
* AGQEDDDRLRP [RAC1_Y64_Y64D] | 0.572
* PTFEHYANSTQ [SLC12A3_Y70_YF] | 1.14
* VKANTYENFWP [GATM_Y100_K102N_YF] | 2.02
* YLGEEYVKAVG [TF_Y674] | 0.393
* VNCHQYDGLVG [ATP2A2_Y407_E412G] | 0.518
* NGQAVYAACQT [XDH_Y1092] | 2.4
* CNPLCYPTIMI [OR6K6_Y160_R159C] | 1.37
* DSMQSYDLDFP [UNC13B_Y243_YF] | 0.541
* AVEDQYFCVDC [FHL1_Y207_YF] | 0.7
* GEDLSYGDLPP [IRS1_Y151_V154L] | 0.794
